Where these numbers come from: paper PMC7835349

# experiment: Plasma pharmacokinetics after IV bolus in C.B-17 SCID mouse
# Type: in vivo
# conditionInfo: female, C.B-17 SCID, mouse, plasma, iv, 5 mg/kg, mouse IV, AZD4320 dosed at 5 mg/kg; 8 hr; read-out: Concentration AZD4320 in Plasma, Mean
reportedProperty: concentration at 8 h

## Input Identify measured concentration at 8 h associated with CN(CCO)CCC(CSc1ccccc1)Nc1ccc(S(=O)(=O)NC(=O)c2ccc(N3CCC(C(O)c4ccccc4-c4ccc(Cl)cc4)CC3)cc2)cc1S(=O)(=O)C(F)(F)F (stereo not shown)
## Output 41.3 ng/mL

###

# experiment: Plasma pharmacokinetics after IV bolus in C.B-17 SCID mouse
# Format: in vivo
# conditionInfo: female, C.B-17 SCID, mouse, plasma, iv, 5 mg/kg, mouse IV, AZD4320 dosed at 5 mg/kg; 4 hr; read-out: Concentration AZD4320 in Plasma, Mean
reportedProperty: concentration at 4 h

## Input Quick one: give measured concentration at 4 h for CN(CCO)CCC(CSc1ccccc1)Nc1ccc(S(=O)(=O)NC(=O)c2ccc(N3CCC(C(O)c4ccccc4-c4ccc(Cl)cc4)CC3)cc2)cc1S(=O)(=O)C(F)(F)F (stereo not shown)
## Output 86.3 ng/mL

###

# experiment: Plasma pharmacokinetics after IV bolus in C.B-17 SCID mouse
# Type: in vivo
# conditionInfo: female, C.B-17 SCID, mouse, plasma, iv, 5 mg/kg, mouse IV, AZD4320 dosed at 5 mg/kg; 2 hr; read-out: Concentration AZD4320 in Plasma, individual animals
reportedProperty: concentration at 2 h (ng/mL)
Reply with just the number (in ng/mL).

## Input Read the entry CN(CCO)CCC(CSc1ccccc1)Nc1ccc(S(=O)(=O)NC(=O)c2ccc(N3CCC(C(O)c4ccccc4-c4ccc(Cl)cc4)CC3)cc2)cc1S(=O)(=O)C(F)(F)F (stereo not shown) and write its reported concentration at 2 h.
## Output 79.7

###

# experiment: Plasma pharmacokinetics after IV bolus in C.B-17 SCID mouse
# Assay type: in vivo
# conditionInfo: female, C.B-17 SCID, mouse, plasma, iv, 5 mg/kg, mouse IV, AZD4320 dosed at 5 mg/kg; 2 hr; read-out: Concentration AZD4320 in Plasma, Mean
reportedProperty: concentration at 2 h (ng/mL)
Give just the number in ng/mL; leave the unit off.

## Input Please report concentration at 2 h for the following compound: CN(CCO)CCC(CSc1ccccc1)Nc1ccc(S(=O)(=O)NC(=O)c2ccc(N3CCC(C(O)c4ccccc4-c4ccc(Cl)cc4)CC3)cc2)cc1S(=O)(=O)C(F)(F)F (stereo not shown)
## Output 75.3

###

# experiment: Plasma pharmacokinetics after IV bolus in C.B-17 SCID mouse
# Format: in vivo
# conditionInfo: female, C.B-17 SCID, mouse, plasma, intravenous, 5 mg/kg, mouse IV, dosed at 5 mg/kg; 8 hr; read-out: Concentration AZD4320 in Plasma, Dose Adjusted to 10 mg/kg
reportedProperty: concentration at 8 h

## Input For the compound CN(CCO)CCC(CSc1ccccc1)Nc1ccc(S(=O)(=O)NC(=O)c2ccc(N3CCC(C(O)c4ccccc4-c4ccc(Cl)cc4)CC3)cc2)cc1S(=O)(=O)C(F)(F)F (stereo not shown) , report concentration at 8 h.
## Output 80 ng/mL

###

# experiment: Tumour pharmacokinetics (released and total AZD4320) in RS4;11 tumours
# Type: in vivo, C.B-17 SCID mouse
# conditionInfo: female, C.B-17 SCID, mouse, tumour (RS4;11 xenograft), intravenous, 10 mg/kg, RS4;11, single dose 10 mg/kg or equivalent; 1 h; read-out: Tumor PK released AZD4320, individual tumours
reportedProperty: concentration at 1 h (ng/g)
Enter your answer as a number in ng/g; do not include the unit.

## Input Report concentration at 1 h, nothing else, for this molecule: CN(CCO)CCC(CSc1ccccc1)Nc1ccc(S(=O)(=O)NC(=O)c2ccc(N3CCC(C(O)c4ccccc4-c4ccc(Cl)cc4)CC3)cc2)cc1S(=O)(=O)C(F)(F)F (stereo not shown)
## Output 1220

###

# experiment: Plasma pharmacokinetics after IV bolus in C.B-17 SCID mouse
# Assay type: in vivo
# conditionInfo: female, C.B-17 SCID, plasma; mouse, 3-compartment model, conventional IV dose; read-out: Total Plasma Clearance CL (converted)
reportedProperty: clearance

## Input For CN(CCO)CCC(CSc1ccccc1)Nc1ccc(S(=O)(=O)NC(=O)c2ccc(N3CCC(C(O)c4ccccc4-c4ccc(Cl)cc4)CC3)cc2)cc1S(=O)(=O)C(F)(F)F (stereo not shown) , write its clearance.
## Output 0.493 mL/min

###

# experiment: Formulation dependent plasma and tumour pharmacokinetics of AZD4320 (Fig S2b)
# Assay type: in vivo
# conditionInfo: C.B-17 SCID, mouse, tumour, iv, 5 mg/kg, Tumor, 0.5 h, 5 mg/kg IV, 30% HPbCD, study CIV-11-055
reportedProperty: concentration at 0.5 h (nM)
Answer format: numeric, nM implied, no suffix.

## Input Answer with reported concentration at 0.5 h of CN(CCO)CCC(CSc1ccccc1)Nc1ccc(S(=O)(=O)NC(=O)c2ccc(N3CCC(C(O)c4ccccc4-c4ccc(Cl)cc4)CC3)cc2)cc1S(=O)(=O)C(F)(F)F (stereo not shown)
## Output 815

###

# experiment: Plasma pharmacokinetics after IV bolus in C.B-17 SCID mouse
# Type: in vivo
# conditionInfo: female, C.B-17 SCID, mouse, plasma, intravenous, 5 mg/kg, mouse IV, dosed at 5 mg/kg; 0.05 hr; read-out: Concentration AZD4320 in Plasma, Dose Adjusted to 10 mg/kg
reportedProperty: concentration at 0.05 h (ng/mL)
Reply with just the number (in ng/mL).

## Input Return the recorded concentration at 0.05 h value; entry: CN(CCO)CCC(CSc1ccccc1)Nc1ccc(S(=O)(=O)NC(=O)c2ccc(N3CCC(C(O)c4ccccc4-c4ccc(Cl)cc4)CC3)cc2)cc1S(=O)(=O)C(F)(F)F (stereo not shown) [AZD4320]
## Output 30600

###

# experiment: Plasma pharmacokinetics after IV bolus in C.B-17 SCID mouse
# Assay type: in vivo
# conditionInfo: female, C.B-17 SCID, mouse, plasma, intravenous, 5 mg/kg, mouse IV, dosed at 5 mg/kg; 1 hr; read-out: Concentration AZD4320 in Plasma, Dose Adjusted to 10 mg/kg
reportedProperty: concentration at 1 h (ng/mL)
Express it in ng/mL; write the number only.

## Input Given the molecule CN(CCO)CCC(CSc1ccccc1)Nc1ccc(S(=O)(=O)NC(=O)c2ccc(N3CCC(C(O)c4ccccc4-c4ccc(Cl)cc4)CC3)cc2)cc1S(=O)(=O)C(F)(F)F (stereo not shown) , write its reported concentration at 1 h.
## Output 870

###

# experiment: Plasma pharmacokinetics after IV bolus in C.B-17 SCID mouse
# Format: in vivo
# conditionInfo: female, C.B-17 SCID, mouse, plasma, iv, 5 mg/kg, mouse IV, AZD4320 dosed at 5 mg/kg; 1 hr; read-out: Concentration AZD4320 in Plasma, Mean
reportedProperty: concentration at 1 h (ng/mL)
Response body: numeric value in ng/mL, unit text excluded.

## Input Entry CN(CCO)CCC(CSc1ccccc1)Nc1ccc(S(=O)(=O)NC(=O)c2ccc(N3CCC(C(O)c4ccccc4-c4ccc(Cl)cc4)CC3)cc2)cc1S(=O)(=O)C(F)(F)F (stereo not shown) needs its concentration at 1 h filled in; supply it.
## Output 436

###

# experiment: Plasma pharmacokinetics after IV bolus in C.B-17 SCID mouse
# Assay type: in vivo
# conditionInfo: female, C.B-17 SCID, mouse, plasma, intravenous, 5 mg/kg, mouse IV, dosed at 5 mg/kg; 0.5 hr; read-out: Concentration AZD4320 in Plasma, Dose Adjusted to 10 mg/kg
reportedProperty: concentration at 0.5 h (ng/mL)
Write it as a number; the unit ng/mL goes unstated.

## Input Return reported concentration at 0.5 h. Input molecule: CN(CCO)CCC(CSc1ccccc1)Nc1ccc(S(=O)(=O)NC(=O)c2ccc(N3CCC(C(O)c4ccccc4-c4ccc(Cl)cc4)CC3)cc2)cc1S(=O)(=O)C(F)(F)F (stereo not shown) [AZD4320]
## Output 1950

###

# experiment: Plasma protein binding (unbound fraction)
# Format: in vitro ADME
# conditionInfo: pre-clinical species and human, across pre-clinical species and man
reportedProperty: fraction unbound

## Input Look up fraction unbound of CN(CCO)CCC(CSc1ccccc1)Nc1ccc(S(=O)(=O)NC(=O)c2ccc(N3CCC(C(O)c4ccccc4-c4ccc(Cl)cc4)CC3)cc2)cc1S(=O)(=O)C(F)(F)F (stereo not shown) [AZD4320] and report it.
## Output < 3e-05

###

# experiment: Plasma pharmacokinetics after IV bolus in C.B-17 SCID mouse
# Format: in vivo
# conditionInfo: female, C.B-17 SCID, mouse, plasma, iv, 5 mg/kg, mouse IV, AZD4320 dosed at 5 mg/kg; 1 hr; read-out: Concentration AZD4320 in Plasma, individual animals
reportedProperty: concentration at 1 h (ng/mL)
Value expressed in ng/mL; do not type the unit.

## Input Please give the documented concentration at 1 h of CN(CCO)CCC(CSc1ccccc1)Nc1ccc(S(=O)(=O)NC(=O)c2ccc(N3CCC(C(O)c4ccccc4-c4ccc(Cl)cc4)CC3)cc2)cc1S(=O)(=O)C(F)(F)F (stereo not shown) [AZD4320]
## Output 579
